These data points were gathered from patent US10149887B2.

system: MIAPaCa2; conditions: read-out: IC50 24 hr; three hours exposure, additional 24 hour
Measurement Name: IC50 (µM)

[
  {
    "Compound": "N.N.[Cl][Pt][Cl] [cisplatin, cis-diamminodichloroplatinum, reference compound]",
    "Experimental Value": 16
  }
]

---

system: MIAPaCa2; settings: read-out: IC50 48 hr; three hours exposure, additional 48 hour
Measurement Name: IC50

[
  {
    "Molecule": "N.N.[Cl][Pt][Cl] [cisplatin, cis-diamminodichloroplatinum, reference compound]",
    "Experimental Value": "31 µM"
  }
]
